target: full length pHrodo-labelled aggregated (P301S) 2N4R tau (human, UniProt P10636 1-758, labelled with pHrodo Red Maleimide); test: cell-based or functional assay; further: test concentration or dose not given here
Sequence (P10636 other isoform, or with tags, fused parts or gaps P301S P301S): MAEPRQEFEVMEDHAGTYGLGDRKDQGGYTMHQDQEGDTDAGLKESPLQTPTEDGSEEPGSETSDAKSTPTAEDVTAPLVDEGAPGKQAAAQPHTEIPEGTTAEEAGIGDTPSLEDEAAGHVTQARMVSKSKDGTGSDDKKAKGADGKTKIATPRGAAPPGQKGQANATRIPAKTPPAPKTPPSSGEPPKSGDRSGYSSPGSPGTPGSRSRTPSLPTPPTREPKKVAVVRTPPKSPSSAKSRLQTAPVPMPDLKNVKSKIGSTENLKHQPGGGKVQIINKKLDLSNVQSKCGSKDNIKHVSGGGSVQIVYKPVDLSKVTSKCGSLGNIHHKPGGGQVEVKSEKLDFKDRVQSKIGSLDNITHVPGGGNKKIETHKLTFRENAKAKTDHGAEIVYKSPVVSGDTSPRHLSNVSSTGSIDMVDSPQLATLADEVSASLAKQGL
READOUT_LABEL: increase of uptake of aggregated tau into human iPSC-derived microglia (% increase)
Give the quantity in % increase, number only.

Give the measured increase of uptake of aggregated tau into human iPSC-derived microglia of Clone 27 (VH4Vκ2), humanised variant of clone #28, human IgG1 (antibody, V domains shown, also called VH4VK2; VH4Vk2) VH: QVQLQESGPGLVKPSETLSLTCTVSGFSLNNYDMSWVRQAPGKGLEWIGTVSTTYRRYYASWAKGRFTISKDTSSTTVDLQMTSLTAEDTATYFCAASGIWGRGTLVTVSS VL: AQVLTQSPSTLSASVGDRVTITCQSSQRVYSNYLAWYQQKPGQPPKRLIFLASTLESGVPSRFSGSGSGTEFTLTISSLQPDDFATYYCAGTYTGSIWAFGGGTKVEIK .
179
